TEST METHOD NOTES: Average peak plasma concentration of compound after 10 mg/kg intraduodenal administration to rat
RUN PARAMETERS: in vivo
PROPERTY NAME: Cmax (ng/mL)

(I) CCCC[C@H](N[C@@H](Cc1ccccc1)C(=O)N1CCC(OCOC)CC1)C(=O)N[C@@H](CC1CCCCC1)[C@@H](O)C[C@H](C(=O)NCCCN1CCOCC1)C(C)C
(II) CCCC[C@H](N[C@@H](Cc1ccccc1)C(=O)N1CCC(OCOC)CC1)C(=O)N[C@@H](CC1CCCCC1)[C@@H](O)C[C@H](C(=O)NCc1ccccc1)C(C)C
(III) CCCC[C@H](N[C@@H](Cc1ccccc1)C(=O)N1CCC(OCOC)CC1)C(=O)N[C@@H](CC1CCCCC1)[C@@H](O)C[C@H](C(=O)NCc1cccnc1)C(C)C
-- ask Give the ascending ranking of the items by reported Cmax. The reply should contain the labels ordered as requested.
-- reply I, II, III

Measured values drawn from ChEMBL document CHEMBL1127457 for this set.
